Assay: Plasma and brain concentrations after single intraperitoneal administration of Compound 74
Format: in vivo, male C57BL/6 mice
Settings: male, C57BL/6, mouse, brain/plasma, IP 5 mg/kg, read-out: Brain Plama Ratio (Kp) range
REPORTED PROPERTY: Kp at 0.5 h

Prompt: // lookup Kp at 0.5 h for Cc1cc(C2CC3(C2)CN(C(=O)c2cc(O)ccc2F)C3)n(-c2ccccc2C)n1
Completion: 0.51 to 0.68

====

Target: human MAGL (Homo sapiens (Human), UniProt Q99685)
Sequence (Q99685 2-303): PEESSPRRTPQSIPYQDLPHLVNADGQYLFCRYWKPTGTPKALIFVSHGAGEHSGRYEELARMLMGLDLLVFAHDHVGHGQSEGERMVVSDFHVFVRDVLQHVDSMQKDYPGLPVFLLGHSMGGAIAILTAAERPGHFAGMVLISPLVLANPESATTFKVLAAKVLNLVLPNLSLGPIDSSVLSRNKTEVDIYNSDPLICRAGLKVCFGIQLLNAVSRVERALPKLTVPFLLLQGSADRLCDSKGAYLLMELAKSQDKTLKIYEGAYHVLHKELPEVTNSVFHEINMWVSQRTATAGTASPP
Assay: MAGL inhibition potency assay with 4NPA substrate (methods of Table C)
Assay type: biochemical
Conditions: read-out: Potency (MAGL inhibition)
Experimental: Cayman's Monoacylglycerol Lipase Inhibitor Screening Assay provides a method for screening human MAGL inhibitors. MAGL hydrolyzes 4-nitrophenylacetate resulting in a yellow product, 4-nitrophenol, with an absorbance of 405-412 nm. […] MAGL hydrolyzes 4-nitrophenylacetate resulting in a yellow product, 4-nitrophenol, with an absorbance of 405-412 nm. MAGL Inhibition was measured by the following assay. […] Hydrolysis of the substrate in the presence of the enzyme was measured by absorbance at 405 nm. […]
REPORTED PROPERTY: IC50

Prompt: IC50 lookup needed for Cc1cc(C2CC3(C2)CN(Cc2cc(O)ccc2F)C3)n(-c2ccccc2C)n1 [Compound 150] , thanks.
Completion: > 10 µM
